- Test system: Candida albicans
- Run Description: Antibacterial activity against Fluconazole resistant Candida albicans DSY3752 containing (TAC1-5/TAC1-5 ERG11-1/ERG11-1) genotype by EUCAST standards based broth microdilution method
- Assay type: functional

# Compound, MIC
data = [
    ("OC(Cn1cncn1)(Cn1cncn1)c1ccc(F)cc1F [FLUCONAZOLE]", "4 µg/mL"),
    ("CC[C@@H]([C@H](C)O)n1ncn(-c2ccc(N3CCN(c4ccc(OC[C@@H]5CO[C@@](Cn6cncn6)(c6ccc(F)cc6F)C5)cc4)CC3)cc2)c1=O [POSACONAZOLE]", "0.25 µg/mL"),
    ("CCC(C)n1ncn(-c2ccc(N3CCN(c4ccc(OCC5COC(Cn6cncn6)(c6ccc(Cl)cc6Cl)O5)cc4)CC3)cc2)c1=O (centres undefined) [ITRACONAZOLE]", "0.25 µg/mL"),
    ("C[C@@H](c1ncncc1F)[C@](O)(Cn1cncn1)c1ccc(F)cc1F [VORICONAZOLE]", "0.125 µg/mL"),
]

====

- Test system: Candida albicans
- Run Description: Antibacterial activity against Fluconazole resistant Candida albicans DSY3606 containing tac1delta/delta ERG11-1/ERG11-1 (TAC1-5) genotype by EUCAST standards based broth microdilution method sCandida albicans DSY294
- Format: functional

# Compound, Target Under Test, fold change (FC)
measured = [
    ("CCC(C)n1ncn(-c2ccc(N3CCN(c4ccc(OCC5COC(Cn6cncn6)(c6ccc(Cl)cc6Cl)O5)cc4)CC3)cc2)c1=O (centres undefined)", "Candida albicans", 8),
    ("CC[C@@H]([C@H](C)O)n1ncn(-c2ccc(N3CCN(c4ccc(OC[C@@H]5CO[C@@](Cn6cncn6)(c6ccc(F)cc6F)C5)cc4)CC3)cc2)c1=O", "Candida albicans", 8),
    ("OC(Cn1cncn1)(Cn1cncn1)c1ccc(F)cc1F", "Candida albicans", 16),
    ("C[C@@H](c1ncncc1F)[C@](O)(Cn1cncn1)c1ccc(F)cc1F", "Candida albicans", 16),
]
